ASSAY NAME: in vitro
PROTOCOL CONDITIONS: human, hela cells, % viability
VALUE TYPE: viability at 28.5 h, 10 µM (%)
# value in %; strip the unit string

viability at 28.5 h, 10 µM lookup needed for O=C(O)c1ccc(C(=O)O)c(-c2ccccc2)c1 [CBK261102] , thanks.
104

viability at 28.5 h, 10 µM lookup needed for O=C1CC2(C(=O)N1CCC1CCCCC1)C(=O)N(Cc1ccccc1)c1ccc(F)cc12 (stereo not drawn) [CBK075175] , thanks.
91

***
viability at 28.5 h, 10 µM lookup needed for CC(=O)Nc1ccc(Nc2cc(-c3ccc(CC(C)C)cc3)ncn2)cc1 [CBK090723] , thanks.
99.4

* * *

ASSAY NAME: in vitro
PROTOCOL CONDITIONS: human, hela cells, % viability
Field: label. Allowed values: Met (viability at 28.5 h, 10 µM < 90%) or Not met (viability at 28.5 h, 10 µM >= 90%).

Worked set:
Given the entry CN1CCC(C(=O)N2CCN(c3ncccn3)CC2)CC1 [CBK144511] , would its reported viability at 28.5 h, 10 µM be below 90%?
Not met

Given the entry O=C(Oc1ccc(/C=N/NC(=O)C2COc3ccccc3O2)cc1)c1cccnc1 (stereo not shown) [CBK262811] , would its reported viability at 28.5 h, 10 µM be below 90%?
Not met

Given the entry COCCCOc1nc2cc(Cl)c(Cl)cc2nc1N1CCCC1 [CBK115773] , would its reported viability at 28.5 h, 10 µM be below 90%?
Not met

Given the entry OCCNc1ncnc2c1cnn2-c1ccccc1 [CBK077741C] , would its reported viability at 28.5 h, 10 µM be below 90%?
Met

Given the entry CCN1CCN(C(=O)COc2cccnc2)CC1 [CBK200378] , would its reported viability at 28.5 h, 10 µM be below 90%?
Not met

Now consider the entry below.
Given the entry Cc1ccc(NS(=O)(=O)c2ccc(OCC(=O)Nc3ccccc3C(F)(F)F)cc2)cc1 [CBK269120] , would its reported viability at 28.5 h, 10 µM be below 90%?
Met

* * *

Overview of recorded viability at 28.5 h, 10 µM for various molecules
ASSAY NAME: in vitro
PROTOCOL CONDITIONS: human, hela cells, % viability
Number first, unit second.

As a guide, the following entries are already answered.
viability at 28.5 h, 10 µM lookup needed for OC(CSc1ccccc1)CN1CCN(c2nc(-c3ccccc3)ns2)CC1 (stereo not shown) [CBK074677C] , thanks.
110%

viability at 28.5 h, 10 µM lookup needed for OCCN(CCO)c1nccnc1-c1ccccc1F , thanks.
106%

viability at 28.5 h, 10 µM lookup needed for CN(CC1(C)COC1)C(=O)c1ccc2c(c1)ncn2C1CC1 , thanks.
86.8%

viability at 28.5 h, 10 µM lookup needed for Nc1ncc(-c2cccc3ncccc23)nc1NC1CCOCC1 , thanks.
101%

viability at 28.5 h, 10 µM lookup needed for COc1ccc(S(=O)(=O)Nc2nnc(C)s2)cc1 , thanks.
114%

***
viability at 28.5 h, 10 µM lookup needed for Cc1nc2ccc(C(=O)N(C)Cc3ccco3)cn2c1N(C)C=O , thanks.
99%

viability at 28.5 h, 10 µM lookup needed for c1ccc(-c2nccnc2OCCc2cccs2)cc1 , thanks.
103%

viability at 28.5 h, 10 µM lookup needed for CCCn1cnnc1C(C)NC(=O)N(C)Cc1nc2cccc(C)c2[nH]1 (stereo not shown) , thanks.
112%

viability at 28.5 h, 10 µM lookup needed for CC(=O)Nc1ccc(C(=O)CSc2nnc(-c3ccncc3)o2)cc1 , thanks.
105%

viability at 28.5 h, 10 µM lookup needed for Brc1cnc(OCc2ccccc2)nc1OCc1ccccc1 , thanks.
101%

* * *

ASSAY NAME: in vitro
PROTOCOL CONDITIONS: human, hela cells, % viability
VALUE TYPE: viability at 28.5 h, 10 µM (%)
# value in %; strip the unit string

As a guide, the following entries are already answered.
viability at 28.5 h, 10 µM lookup needed for COc1ccc(CCOC(=O)Nc2cn(C)nc2C(F)(F)F)cc1OC , thanks.
105

viability at 28.5 h, 10 µM lookup needed for CC1CCN(Cc2ccc(-c3ccc(CC(=O)NCCc4ccc(O)cc4)cn3)cc2)CC1 , thanks.
91.9

viability at 28.5 h, 10 µM lookup needed for COc1ccc(S(=O)(=O)N2CCN(C(=O)COc3ccc4ccccc4c3)CC2)cc1 , thanks.
91.5

viability at 28.5 h, 10 µM lookup needed for COc1ccc(Cl)cc1N/C=C(/C#N)c1nc(-c2cc3cc([N+](=O)[O-])ccc3oc2=O)cs1 , thanks.
102

viability at 28.5 h, 10 µM lookup needed for COc1ccc(/N=C2\S[C@H]3[C@H]([C@@H](O)[C@H](O)C[C@@H]3C(N)=O)N2Cc2cccs2)cc1 , thanks.
88.7

***
viability at 28.5 h, 10 µM lookup needed for COCCn1c(SCc2c(C)nc3ccccn23)nc(C)c1C , thanks.
80.1

viability at 28.5 h, 10 µM lookup needed for C[C@H](Cn1nc2c(cc1=O)CCCCC2)NC(=O)Cc1cccs1 , thanks.
100

viability at 28.5 h, 10 µM lookup needed for COc1ccc(-c2cc(C(=O)OCc3ccccn3)c3ccccc3n2)cc1 , thanks.
108

viability at 28.5 h, 10 µM lookup needed for N#CCc1ccc(OC(=O)c2cccnc2)cc1 , thanks.
105

viability at 28.5 h, 10 µM lookup needed for CCn1c(CC2CCN(C(=O)CCN3CCCCO3)CC2)nn(C)c1=O , thanks.
95.4

viability at 28.5 h, 10 µM lookup needed for OCCc1ccc(Nc2cc(-c3ccc4c(c3)OCO4)ncn2)cc1 , thanks.
97.8

viability at 28.5 h, 10 µM lookup needed for COCC(=O)N1CCC(c2cc(-c3ccc(F)cc3)n[nH]2)C1 (stereo not drawn) , thanks.
101

* * *

ASSAY NAME: in vitro
PROTOCOL CONDITIONS: human, hela cells, % viability
Overview of recorded viability at 28.5 h, 10 µM for various molecules
Number first, unit second.

viability at 28.5 h, 10 µM lookup needed for O=C(Cc1ccsc1)N1CCCC1c1nc2ccccc2[nH]1 (stereo not shown) , thanks.
87.7%

viability at 28.5 h, 10 µM lookup needed for Cc1nc(O)cc(C2CCCN(C(=O)c3scc4c3CCCC4)C2)n1 (stereo not shown) , thanks.
88.5%

viability at 28.5 h, 10 µM lookup needed for CCc1nc2c(OCc3ccc(S(C)(=O)=O)cc3)cccn2c1N(CCOC)C(C)=O , thanks.
87.4%

Pending molecule:
viability at 28.5 h, 10 µM lookup needed for CC(C)(C)OC(=O)N1CCCC1C1COc2ccccc2C1=O (stereo not shown) , thanks.
89.2%

* * *

Overview of recorded viability at 28.5 h, 10 µM for various compounds
ASSAY NAME: in vitro
PROTOCOL CONDITIONS: human, hela cells, % viability
# value in %; strip the unit string

viability at 28.5 h, 10 µM lookup needed for O=S1(=O)N=c2cc3c(c4cccc1c24)=Nc1ccccc1N3 , thanks.
89.9

viability at 28.5 h, 10 µM lookup needed for CCOC(=O)C1CCN(S(=O)(=O)c2cccs2)CC1 , thanks.
92.4

Pending compound:
viability at 28.5 h, 10 µM lookup needed for O=C(OCc1ccccc1)N1CCC2(CC1)CN(c1ccc([N+](=O)[O-])cn1)CCO2 [CBK161111T] , thanks.
92

* * *

ASSAY NAME: in vitro
PROTOCOL CONDITIONS: human, hela cells, % viability
VALUE TYPE: viability at 28.5 h, 10 µM
Number first, unit second.

As a guide, the following entries are already answered.
viability at 28.5 h, 10 µM lookup needed for O=S(=O)(O)c1ccc(N/N=C/c2cccc(/C=N/Nc3ccc(S(=O)(=O)O)cc3)c2)cc1 [CBK278204N] , thanks.
89%

viability at 28.5 h, 10 µM lookup needed for COc1ccc(-c2noc(CNC(=O)Nc3ccccc3)n2)cc1OC [CBK269900] , thanks.
88.3%

viability at 28.5 h, 10 µM lookup needed for CCC(C(=O)N1CCC(C(=O)c2cccnc2)CC1)c1ccccc1 (stereo not drawn) [CBK283525] , thanks.
91.1%

viability at 28.5 h, 10 µM lookup needed for CC(NC(=O)Nc1ccc(C(=O)NC(C)(C)C)cc1)c1cccc(Cl)c1 (stereo not drawn) [CBK298265] , thanks.
87.8%

viability at 28.5 h, 10 µM lookup needed for C=CCn1c(SCC(=O)Nc2ccnc3ccccc23)nnc1-c1cccnc1 [CBK268723] , thanks.
88.6%

viability at 28.5 h, 10 µM lookup needed for COc1ccc(C(=O)N2CCC3(CCN(C(=O)CC4CCCCC4)C3)C2)cc1OC (stereo not drawn) [CBK131770] , thanks.
94.7%

viability at 28.5 h, 10 µM lookup needed for CN(C)[C@@H]1CN(Cc2ccccn2)C[C@H]1c1cn(C)c2ccccc12 [CBK284582] , thanks.
97.9%

viability at 28.5 h, 10 µM lookup needed for Cc1nc(C)n(CC2CCCN(Cc3cn4ccccc4c3C#N)C2)n1 (stereo not drawn) [CBK306103] , thanks.
92.6%

viability at 28.5 h, 10 µM lookup needed for Cc1cc(OCCCNCCO)ccc1Cl [CBK262230] , thanks.
95.4%

viability at 28.5 h, 10 µM lookup needed for O=C(CCCc1c[nH]c2ccccc12)Nc1cccc(C(=O)O)c1 [CBK287175] , thanks.
104%

***
viability at 28.5 h, 10 µM lookup needed for FC(F)(F)c1nnc2ccc(-n3ccnc3)nn12 [CBK020041] , thanks.
96.1%

viability at 28.5 h, 10 µM lookup needed for CC(=O)OCc1ccc(CN2CCCCCC2c2cc(C)on2)o1 (stereo not drawn) [CBK283004] , thanks.
88.2%

viability at 28.5 h, 10 µM lookup needed for N#C/C(=C\c1c[nH]nc1-c1ccccc1)c1nc(-c2cccc([N+](=O)[O-])c2)cs1 [CBK267252] , thanks.
96.8%

viability at 28.5 h, 10 µM lookup needed for Cc1cc(=O)n2c3ccccc3n(CC(O)CN3CCN(C(c4ccccc4)c4ccccc4)CC3)c2c1C#N (stereo not drawn) [CBK268375] , thanks.
89.8%

viability at 28.5 h, 10 µM lookup needed for O=C(c1n[nH]cc1Cl)N1CCCC(c2cc3ccccc3cn2)C1 (stereo not drawn) [CBK285062] , thanks.
88%

viability at 28.5 h, 10 µM lookup needed for O=C(O)c1cccc(-c2cc(N3CCN(Cc4cccnc4)CC3)n3nccc3n2)c1 [CBK037080] , thanks.
106%

viability at 28.5 h, 10 µM lookup needed for CNC(=O)c1cn2cc(-c3cccs3)n(CC3CC3)c(=O)c2n1 [CBK306838] , thanks.
84%

viability at 28.5 h, 10 µM lookup needed for CN(CCCc1cc(-c2cccc(F)c2)n[nH]1)C(=O)c1cnn(C)c1 [CBK305745] , thanks.
86.6%

viability at 28.5 h, 10 µM lookup needed for Nc1ccc(-c2nc(-c3ccccc3)c3cc(-c4ccc5nc(-c6ccc(N)cc6)nc(-c6ccccc6)c5c4)ccc3n2)cc1 [CBK261152] , thanks.
107%
